# TARGET SYSTEM: Hsp90 (human Hsp90α) (Homo sapiens, UniProt P07900, H210A)
# Construct: purified full-length Hsp90α, C-terminally dimerized homodimer
# METHOD NOTES: isothermal titration calorimetry
VALUE TYPE: Kd (µM)

>>> observed_result("Nc1ncnc2c1ncn2[C@@H]1O[C@H](COP(=O)(O)OP(=O)(O)NP(=O)(O)O)[C@@H](O)[C@H]1O")
170

---

# TARGET SYSTEM: Hsp90 (human Hsp90α) (Homo sapiens, UniProt P07900)
# Construct: purified full-length Hsp90α, C-terminally dimerized homodimer
# METHOD NOTES: isothermal titration calorimetry
VALUE TYPE: Kd (µM)

>>> observed_result("Nc1ncnc2c1ncn2[C@@H]1O[C@H](COP(=O)(O)OP(=O)(O)NP(=O)(O)O)[C@@H](O)[C@H]1O")
220
